System: RARg homodimer (NR concentration 270 nM)
Experimental Protocol: PBM binding z-score (relative to random genomic background probes); higher = stronger binding; sequences stand for … in GC…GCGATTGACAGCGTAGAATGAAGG
Measured Metric: PBM binding z-score
Give bare numbers.

These recorded examples may help you get a feel for the data.
- Residues: "AGTCAAAGTTCAGGACGAGGTAACCTAAAGCACG"
  Tested Target: "RARg homodimer (NR concentration 270 nM)"
  PBM binding z-score: 4.86
- Residues: "CTCGAAAGGTTGGTTGAGGTGAGTATACGGATAA"
  Tested Target: "RARg homodimer (NR concentration 270 nM)"
  PBM binding z-score: 0.684
- Residues: "GTACCAAGGTGAATAGGTCCTTGATGAGTAGGCG"
  Tested Target: "RARg homodimer (NR concentration 270 nM)"
  PBM binding z-score: 0.683
- Residues: "CGAACGGGGGCATGAGTTGATAGCAAATGCCGAT"
  Tested Target: "RARg homodimer (NR concentration 270 nM)"
  PBM binding z-score: 3.74
- Residues: "CCTTACTGGTCAAGGTTATAGCACGGGTGGTACG"
  Tested Target: "RARg homodimer (NR concentration 270 nM)"
  PBM binding z-score: 1.55

Working through the 6 sequences below one at a time, give PBM binding z-score for each.
1. ATCGAAAGGACGAAGGTGAGTATACCCACCCGAA
2. GTACCCAGGTGAATAGGTCGTTGATGAGTAGGCG
3. CGTCCAAGGTGAGCAGGTCAGTGAAAGCGACGTG
4. CCTCGGAGGCCAGAAGGTCAGAGCTGTCCGCTTT
5. CCGACTAGGGCATAAGGTTACCATAAGCCAGCCC
6. ATATGTAGGTTACATCTGGGTCATTCAGGCTATG

1.26
0.814
2.37
3.12
1.34
2.31

====

Test system: RARg:RXRa (NR concentration 270 nM, RXRa partner concentration 90 nM)
Experimental Protocol: PBM binding z-score (relative to random genomic background probes); higher = stronger binding; sequences stand for … in GC…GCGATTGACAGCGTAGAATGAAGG
Task for the reader: assign each of the following sequences its reported PBM binding z-score.
Give bare numbers.

- Residues: "AGAATGAGGTGATACGTAGATCAGGGAAGAAAGT"
  Tested Target: "RARg:RXRa (NR concentration 270 nM, RXRa partner concentration 90 nM)"
  PBM binding z-score: 0.451
- Residues: "GCTTGTAGATAAAGGTTAAGAAAGACTAAGCTAA"
  Tested Target: "RARg:RXRa (NR concentration 270 nM, RXRa partner concentration 90 nM)"
  PBM binding z-score: 1.29
- Residues: "CAAACTAGGTCAAAGGTCATAGTCGAGCCAACCA"
  Tested Target: "RARg:RXRa (NR concentration 270 nM, RXRa partner concentration 90 nM)"
  PBM binding z-score: 8.65
- Residues: "AATACAGGGTCGTCGTAGGCCAGAGTACGCACAG"
  Tested Target: "RARg:RXRa (NR concentration 270 nM, RXRa partner concentration 90 nM)"
  PBM binding z-score: 2.13
- Residues: "TCTTGTAAATCAAAGGTTAAGAAAGCCGAAGCCT"
  Tested Target: "RARg:RXRa (NR concentration 270 nM, RXRa partner concentration 90 nM)"
  PBM binding z-score: 1.39

Now look at this one.
Recorded PBM binding z-score for GCTGCTAGGTCAGGTTGGTCACCTAACGGGTACG , please?
2.67

Entry source: the supplement of paper PMC6555819
